Origin of the recorded values: the supplement of paper PMC10567573

B1: ZNF449 (parent)
chain: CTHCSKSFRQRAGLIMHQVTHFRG

Variants of: B1
Experiment: protein stability index of a GFP-peptide fusion (GPS, HEK-293T) (PSI 1-6); higher = more stable;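 also: lentivirally expressed fusions sorted by FACS into six bins by GFP to DsRed ratio, PSI derived from sequencing read proportions per bin multiplied by bin number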
Conditions: c terminus: a fixed tail appended
I would appreciate it if you labelled entries rule met when protein stability index is 2 or higher, otherwise rule not met.

Solved entries:
> print(dat)
   alteration  category
1         K6I  rule met
2        I15R  rule met
3        A12I  rule met

Form field: protein stability index at least 2? Entry: V19W
rule met

What about G13E ?
rule met

What about F22R ?
rule met

What about S7Q ?
rule not met

What about R11C ?
rule met

What about H21E ?
rule not met

What about R9T ?
rule met

What about S5P ?
rule met

What about Q18R ?
rule not met

What about M16A ?
rule met
